Entries annotated with measured pIC50
TARGET OR SYSTEM: human 5-HT2A serotonin receptor (Homo sapiens (Human))
ASSAY CONDITIONS: 0.5 nM [125I]DOI, COS7 membranes with recombinant human 5-HT2A; read-out: IC50 DOI Binding Assay
Bear in mind: pIC50 is minus log10 of a mol/L concentration; give just that figure.

The reported pIC50 of the molecule O=C(c1cccn2ccnc12)N1CCN(CC(F)c2ccc(F)cc2)CC1 (centres unmarked) was 8.00

Looking up O=C(c1cccn2cc(-c3ccccc3)nc12)N1CCN(CCc2ccc(F)cc2)CC1 , I see its pIC50 listed as 7.34
